Test system: HIV
Assay: microbe, parasite or virus in culture
Conditions: selectivity index, ratio of CC50 to IC50, as log difference
Measured pSI (pCC50-pIC50), listed per entry for reference.

Compound | Tested System | Lt Gt Eq | pSI (pCC50-pIC50)
Cc1cc(/C=C/C#N)cc(C)c1Nc1ccnc(Nc2ccc(C#N)cc2)n1 | HIV | = | −4.4
C/C(C#N)=C\c1cc(C)c(Oc2ccnc(Nc3ccc(C#N)cc3)n2)c(C)c1 | HIV | < | −4.9
Cc1cc(CCC#N)cc(C)c1Nc1ccnc(Nc2ccc(C#N)cc2)n1 | HIV | = | −3.4
Cc1cc(/C=C/C(=O)N2CC=CC2)cc(C)c1Oc1ccnc(Nc2ccc(C#N)cc2)n1 | HIV | = | −3.7
Cc1cc(/C=C/C#N)ccc1Nc1ccnc(Nc2ccc(C#N)cc2)n1 | HIV | < | −4.9
Cc1cc(/C=C/C(=O)N2CCN(C)CC2)cc(C)c1Nc1ccnc(Nc2ccc(C#N)cc2)n1 | HIV | = | −2.5
Cc1cc(/C=C/C(=O)N(C)CCC#N)cc(C)c1Oc1ccnc(Nc2ccc(C#N)cc2)n1 | HIV | = | −3.5
Cc1cc(/C(Cl)=C\C#N)cc(C)c1Nc1ccnc(Nc2ccc(C#N)cc2)n1 | HIV | = | −3.8
Cc1cc(CCC#N)ccc1Nc1ccnc(Nc2ccc(C#N)cc2)n1 | HIV | < | −5.5
CCN(C)C(=O)/C=C/c1cc(C)c(Oc2ccnc(Nc3ccc(C#N)cc3)n2)c(C)c1 | HIV | = | −3.6
Cc1cc(-c2ccc(C#N)o2)cc(C)c1Nc1ccnc(Nc2ccc(C#N)cc2)n1 | HIV | = | −3.5
Cc1cc(/C=C/C(=O)N(C)C)cc(C)c1Oc1ccnc(Nc2ccc(C#N)cc2)n1 | HIV | = | −4.1
COc1cc(C=C(C)C#N)ccc1Nc1ccnc(Nc2ccc(C#N)cc2)n1 | HIV | = | −4.5
Cc1cc(/C=C(/F)C#N)cc(C)c1Oc1ccnc(Nc2ccc(C#N)cc2)n1 | HIV | = | −4.3
Cc1cc(-c2ccco2)cc(C)c1Nc1ccnc(Nc2ccc(C#N)cc2)n1 | HIV | = | −2.9
Cc1cc(/C=C(/C#N)C(=O)C(C)(C)C)cc(C)c1Nc1ccnc(Nc2ccc(C#N)cc2)n1 | HIV | = | −2.5
Cc1cc(/C=C/c2cccnc2)cc(C)c1Nc1ccnc(Nc2ccc(C#N)cc2)n1 [Compound 145] | HIV | = | −3.4
Cc1cc(/C=C\C#N)cc(C)c1Nc1ccnc(Nc2ccc(C#N)cc2)n1 | HIV | = | −2.9
CC(C#N)=Cc1cc(C)c(Nc2ccnc(Nc3ccc(C#N)cc3)n2)c(Cl)c1 | HIV | = | −3.6
Cc1cc(C(C)CC#N)ccc1Oc1ccnc(Nc2ccc(C#N)cc2)n1 (stereo not drawn) | HIV | < | −5.3
C/C(C#N)=C/c1cc(C)c(Nc2ccnc(Nc3ccc(C#N)cc3)n2)c(C)c1 [Compound 151] | HIV | = | −3.6
CC(C#N)=Cc1ccc(Oc2ccnc(Nc3ccc(C#N)cc3)n2)c(C)c1 | HIV | < | −5.2
Cc1cc(C=C(C#N)CC#N)cc(C)c1Nc1ccnc(Nc2ccc(C#N)cc2)n1 (mixture of isomers) | HIV | = | −3.7
Cc1cc(/C(=C\C#N)C(C)C)cc(C)c1Nc1ccnc(Nc2ccc(C#N)cc2)n1 | HIV | = | −4.0
C/C(=C\C#N)c1cc(C)c(Nc2ccnc(Nc3ccc(C#N)cc3)n2)c(C)c1 | HIV | = | −4.5
Cc1cc(/C=C/C(=O)N2CCOCC2)cc(C)c1Oc1ccnc(Nc2ccc(C#N)cc2)n1 | HIV | = | −3.6
Cc1cc(/C(=C/C#N)C(C)C)cc(C)c1Nc1ccnc(Nc2ccc(C#N)cc2)n1 | HIV | = | −3.8
CC(C#N)=Cc1cc(C)c(Nc2ccnc(Nc3ccc(C#N)cc3)n2)c(Br)c1 | HIV | = | −3
CCN(C)C(=O)/C=C/c1cc(C)c(Nc2ccnc(Nc3ccc(C#N)cc3)n2)c(C)c1 | HIV | = | −2.5
Cc1cc(/C=C/C#N)ccc1Oc1ccnc(Nc2ccc(C#N)cc2)n1 | HIV | < | −5.2
Cc1cc(CN(C)CCC#N)cc(C)c1Nc1ccnc(Nc2ccc(C#N)cc2)n1 | HIV | = | −4.0
Cc1cc(/C=C/C#N)cc(Br)c1Nc1ccnc(Nc2ccc(C#N)cc2)n1 | HIV | = | −3.5
CC(=CC#N)c1ccc(Oc2ccnc(Nc3ccc(C#N)cc3)n2)c(C)c1 | HIV | < | −4.4
